assay_procedure: Pharmacokinetic study in man (12 healthy subjects), racemate or one enantiomer alone
Assay type: in vivo
condition_info: human, plasma, enantiomer assayed after F2207 (50 mg)
parameter_measured: Tmax (h)
Expressed in h, but write only the number.

CCN(CC)C(=O)[C@@]1(c2ccccc2)C[C@H]1CN = 3.42

Entry under review: CCN(CC)C(=O)[C@]1(c2ccccc2)C[C@@H]1CN . Reported Tmax? 2.87

----------
Recorded IC50, one value per entry.
measurement_target: 3H-paroxetine binding (Rattus norvegicus, UniProt P31652)
Construct: the hypothalamus was removed, weighed and homogenised on a Dounce; from tissue
assay_procedure: Paroxetine binding, rat hypothalamus membranes
Expressed in nM, but write only the number.

Illustrative cases are given below, each with its answer.
CCN(CC)C(=O)C1(c2ccccc2)CC1CN (racemic) [F2207] = 130
CCN(CC)C(=O)[C@@]1(c2ccccc2)C[C@H]1CN [F2695] = 60

So what IC50 did CCN(CC)C(=O)[C@]1(c2ccccc2)C[C@@H]1CN [F2696] get with 3H-paroxetine binding (Rattus norvegicus, UniProt P31652)? 700

----------
Recorded half-life, one value per entry.
assay_procedure: Pharmacokinetic study in man (12 healthy subjects), racemate or one enantiomer alone
Type: in vivo
condition_info: human, plasma, enantiomer administered alone (25 mg), read-out: T½ (converted)
Expressed in h, but write only the number.

CCN(CC)C(=O)[C@]1(c2ccccc2)C[C@@H]1CN [F2696] = 5.58

Entry under review: CCN(CC)C(=O)[C@@]1(c2ccccc2)C[C@H]1CN [F2695] . Reported half-life? 9.38

----------
measurement_target: 3H-norepinephrine uptake (Rattus norvegicus)
condition_info: read-out: IC50 3H-Norepinephrine uptake; rat hypothalamus P2, 3H-NE 50 nM, 10 min, 37° C.
parameter_measured: IC50 (nM)
Expressed in nM, but write only the number.

Entry under review: CCN(CC)C(=O)C1(c2ccccc2)CC1CN (racemic) . Reported IC50? 30

----------
measurement_target: 3H-serotonin uptake (Rattus norvegicus, UniProt P31652)
Construct: the hypothalamus was removed, weighed and homogenised on a Dounce
Sequence (P31652 whole entry): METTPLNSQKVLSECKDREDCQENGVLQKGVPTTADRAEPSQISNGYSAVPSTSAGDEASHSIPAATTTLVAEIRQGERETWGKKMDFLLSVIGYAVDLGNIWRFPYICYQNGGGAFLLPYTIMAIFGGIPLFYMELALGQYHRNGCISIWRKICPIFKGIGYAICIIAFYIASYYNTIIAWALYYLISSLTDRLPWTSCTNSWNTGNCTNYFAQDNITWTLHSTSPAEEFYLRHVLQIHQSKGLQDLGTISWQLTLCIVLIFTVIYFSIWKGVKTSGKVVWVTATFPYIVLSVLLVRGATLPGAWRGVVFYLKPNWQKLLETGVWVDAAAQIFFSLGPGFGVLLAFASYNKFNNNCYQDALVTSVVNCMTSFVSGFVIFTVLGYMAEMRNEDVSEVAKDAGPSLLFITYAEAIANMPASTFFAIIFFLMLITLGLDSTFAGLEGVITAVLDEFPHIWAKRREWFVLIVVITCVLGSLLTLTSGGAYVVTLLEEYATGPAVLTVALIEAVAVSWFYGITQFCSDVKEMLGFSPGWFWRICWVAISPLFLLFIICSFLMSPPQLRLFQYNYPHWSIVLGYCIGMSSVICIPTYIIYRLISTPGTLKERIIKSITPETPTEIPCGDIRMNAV
assay_procedure: Serotonin uptake, rat hypothalamus P2 fraction (synaptosomes)
parameter_measured: pIC50
Answer as the number alone; pIC50 is minus log10 of concentration in mol/L.

Illustrative cases are given below, each with its answer.
CCN(CC)C(=O)[C@]1(c2ccccc2)C[C@@H]1CN = 6.22
CCN(CC)C(=O)[C@@]1(c2ccccc2)C[C@H]1CN = 7.34

Entry under review: CCN(CC)C(=O)C1(c2ccccc2)CC1CN (racemic) . Reported pIC50? 6.82

----------
Recorded AUC(0-inf), one value per entry.
assay_procedure: Pharmacokinetic study in man (12 healthy subjects), racemate or one enantiomer alone
Type: in vivo
condition_info: human, plasma, enantiomer assayed after F2207 (50 mg)
Expressed in µM·h, but write only the number.

CCN(CC)C(=O)[C@]1(c2ccccc2)C[C@@H]1CN = 1.56

Entry under review: CCN(CC)C(=O)[C@@]1(c2ccccc2)C[C@H]1CN . Reported AUC(0-inf)? 2.9

----------
Recorded half-life, one value per entry.
assay_procedure: Pharmacokinetic study in man (12 healthy subjects), racemate or one enantiomer alone
Assay type: in vivo
condition_info: human, plasma, enantiomer assayed after F2207 (50 mg), read-out: T½ (converted)
Expressed in min, but write only the number.

CCN(CC)C(=O)[C@@]1(c2ccccc2)C[C@H]1CN = 557

Next, consider the following compound.
Entry under review: CCN(CC)C(=O)[C@]1(c2ccccc2)C[C@@H]1CN . Reported half-life? 345

----------
assay_procedure: Pharmacokinetic study in man (12 healthy subjects), racemate or one enantiomer alone
Format: in vivo
condition_info: human, plasma, enantiomer administered alone (25 mg)
parameter_measured: AUC(0-inf)

CCN(CC)C(=O)[C@]1(c2ccccc2)C[C@@H]1CN [F2696] = 1.54 µM·h

Next, consider the following molecule.
Entry under review: CCN(CC)C(=O)[C@@]1(c2ccccc2)C[C@H]1CN [F2695] . Reported AUC(0-inf)? 2.87 µM·h

----------
Recorded Cmax, one value per entry.
assay_procedure: Pharmacokinetic study in man (12 healthy subjects), racemate or one enantiomer alone
Format: in vivo
condition_info: human, plasma, enantiomer administered alone (25 mg)
Expressed in nM, but write only the number.

CCN(CC)C(=O)[C@@]1(c2ccccc2)C[C@H]1CN = 216

Next, consider the following compound.
Entry under review: CCN(CC)C(=O)[C@]1(c2ccccc2)C[C@@H]1CN . Reported Cmax? 212

----------
measurement_target: 3H-norepinephrine uptake (Rattus norvegicus, UniProt Q63380)
Sequence (Q63380 1-617): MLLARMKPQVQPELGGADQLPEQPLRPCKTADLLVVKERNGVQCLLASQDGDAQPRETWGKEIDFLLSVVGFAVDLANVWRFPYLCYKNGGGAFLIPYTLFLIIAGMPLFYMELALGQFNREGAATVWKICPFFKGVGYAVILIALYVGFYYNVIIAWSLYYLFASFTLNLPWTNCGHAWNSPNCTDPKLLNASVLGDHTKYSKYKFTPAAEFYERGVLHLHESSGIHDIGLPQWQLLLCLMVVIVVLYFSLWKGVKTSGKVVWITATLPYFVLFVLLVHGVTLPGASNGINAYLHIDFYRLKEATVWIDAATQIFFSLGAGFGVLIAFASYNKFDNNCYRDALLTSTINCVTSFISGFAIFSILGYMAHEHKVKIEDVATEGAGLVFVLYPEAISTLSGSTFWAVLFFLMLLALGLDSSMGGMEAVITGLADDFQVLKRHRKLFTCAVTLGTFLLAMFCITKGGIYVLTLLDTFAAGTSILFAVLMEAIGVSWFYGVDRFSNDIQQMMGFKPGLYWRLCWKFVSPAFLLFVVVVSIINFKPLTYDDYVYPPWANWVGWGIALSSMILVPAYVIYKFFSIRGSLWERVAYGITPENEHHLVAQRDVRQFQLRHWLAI
assay_procedure: biochemical
Recorded pIC50, one value per entry.
Answer as the number alone; pIC50 is minus log10 of concentration in mol/L.

CCN(CC)C(=O)[C@]1(c2ccccc2)C[C@@H]1CN = 6.12

Next, consider the following compound.
Entry under review: CCN(CC)C(=O)[C@@]1(c2ccccc2)C[C@H]1CN . Reported pIC50? 7.82

----------
assay_procedure: Pharmacokinetic study in man (12 healthy subjects), racemate or one enantiomer alone
Format: in vivo
condition_info: human, plasma, enantiomer assayed after F2207 (50 mg)
parameter_measured: Cmax (nM)
Expressed in nM, but write only the number.

CCN(CC)C(=O)[C@@]1(c2ccccc2)C[C@H]1CN = 214

Next, consider the following compound.
Entry under review: CCN(CC)C(=O)[C@]1(c2ccccc2)C[C@@H]1CN . Reported Cmax? 179
